Task for the reader: assign each of the following sequences its reported shrunken log2 fold change.
test system: Escherichia coli TOP10; experiment: shrunken log2 fold change of peptide-encoding DNA abundance (4.5 h post-induction vs induction); higher = less antimicrobial activity (less host growth inhibition); details: time post-induction: 4.5 h; library: site-saturation at positions 5, 18, 19, 20
Answers are plain numbers.

Consider the reported shrunken log2 fold change for these sequences:
INSERT INTO assay_data (biosequence, reported) VALUES
  ('RRIRMRPPRLPRPRPRPKSLPRP', 0.171),
  ('RRIRHRPPRLPRPRPRPCPDPRP', 0.0299),
  ('RRIRQRPPRLPRPRPRPSYKPRP', -0.54);

Then this sequence:
(Q) Note shrunken log2 fold change for the sequence shown: `RRIRFRPPRLPRPRPRPQLMPRP`
(A) -0.32

----------
Answer each item with its documented shrunken log2 fold change.
tested on: Escherichia coli TOP10; test: shrunken log2 fold change of peptide-encoding DNA abundance (4.5 h post-induction vs induction); higher = less antimicrobial activity (less host growth inhibition); details: time post-induction: 4.5 h; library: site-saturation at positions 5, 18, 19, 20
One number for each entry.

Would you please look over these solved cases?
INSERT INTO assay_data (biosequence, reported) VALUES
  ('RRIRHRPPRLPRPRPRPLENPRP', 0.00854),
  ('RRIRFRPPRLPRPRPRPLWSPRP', 0.655),
  ('RRIRHRPPRLPRPRPRPTPIPRP', 0.226);

Turning to the following sequence.
(Q) Determine from records and report shrunken log2 fold change for `RRIRQRPPRLPRPRPRPVWWPRP`
(A) 0.015

----------
Exercise: state measured shrunken log2 fold change for each of the sequences provided.
tested on: Escherichia coli TOP10; assay: shrunken log2 fold change of peptide-encoding DNA abundance (4.5 h post-induction vs induction); higher = less antimicrobial activity (less host growth inhibition); conditions: time post-induction: 4.5 h; library: site-saturation at positions 5, 18, 19, 20
Give bare numbers.

Sample records with shrunken log2 fold change:
INSERT INTO assay_data (biosequence, parameter_measured, reported) VALUES
  ('RRIRMRPPRLPRPRPRPTLLPRP', 'shrunken log2 fold change', 0.2),
  ('RRIRERPPRLPRPRPRPHPAPRP', 'shrunken log2 fold change', 0.039),
  ('RRIRWRPPRLPRPRPRPPHEPRP', 'shrunken log2 fold change', 0.0628),
  ('RRIRRRPPRLPRPRPRPKMFPRP', 'shrunken log2 fold change', -0.131),
  ('RRIRVRPPRLPRPRPRPCQWPRP', 'shrunken log2 fold change', -0.0851),
  ('RRIRRRPPRLPRPRPRPTSYPRP', 'shrunken log2 fold change', -0.0452),
  ('RRIRWRPPRLPRPRPRPTVKPRP', 'shrunken log2 fold change', -0.0974),
  ('RRIRLRPPRLPRPRPRPLCMPRP', 'shrunken log2 fold change', -0.467);

Need shrunken log2 fold change for each of these sequences.
1. RRIRGRPPRLPRPRPRPQQQPRP
2. RRIRRRPPRLPRPRPRPFHRPRP
3. RRIRNRPPRLPRPRPRPKHMPRP
4. RRIRKRPPRLPRPRPRPNNAPRP

(A)
0.843
0.0574
-0.382
0.243

Respectfully, I request shrunken log2 fold change for each entry included below.
1. RRIRSRPPRLPRPRPRPDKQPRP
2. RRIRWRPPRLPRPRPRPHERPRP
3. RRIRVRPPRLPRPRPRPNLPPRP
4. RRIRIRPPRLPRPRPRPIFRPRP

(A)
1. -0.0566
2. 0.156
3. 0.232
4. -0.013

Dear colleague, could you please provide shrunken log2 fold change for the sequences listed below?
1. RRIRARPPRLPRPRPRPKDGPRP
2. RRIRTRPPRLPRPRPRPPQTPRP
3. RRIRERPPRLPRPRPRPAGIPRP

(A)
0.298
0.457
-0.536

Please give shrunken log2 fold change for each item listed below.
1. RRIRIRPPRLPRPRPRPAPLPRP
2. RRIRKRPPRLPRPRPRPANEPRP
3. RRIRERPPRLPRPRPRPGPQPRP
4. RRIRTRPPRLPRPRPRPNGTPRP
5. RRIRIRPPRLPRPRPRPYNMPRP

(A)
1: 0.276; 2: 0.151; 3: 0.231; 4: -0.402; 5: -1.39

----------
system: Escherichia coli TOP10; assay: shrunken log2 fold change of peptide-encoding DNA abundance (4.5 h post-induction vs induction); higher = less antimicrobial activity (less host growth inhibition); conditions: time post-induction: 4.5 h; library: site-saturation at positions 5, 18, 19, 20
Decision: shrunken log2 fold change compared against -0.001; not below it gives Met, below it gives Not met.

Previously resolved entries follow.
INSERT INTO results (biosequence, cat) VALUES
  ('RRIRQRPPRLPRPRPRPRKDPRP', 'Not met'),
  ('RRIRLRPPRLPRPRPRPCHSPRP', 'Not met'),
  ('RRIRPRPPRLPRPRPRPGAKPRP', 'Met'),
  ('RRIRYRPPRLPRPRPRPACPPRP', 'Not met'),
  ('RRIRWRPPRLPRPRPRPGDKPRP', 'Not met');

(Q) Is it the case that `RRIRTRPPRLPRPRPRPDIIPRP` has shrunken log2 fold change reaching or exceeding -0.001?
(A) Not met

(Q) Decide: is the reported value of shrunken log2 fold change for `RRIRPRPPRLPRPRPRPQEKPRP` equal to or greater than -0.001?
(A) Not met

(Q) Does `RRIRGRPPRLPRPRPRPFQVPRP` have a reported shrunken log2 fold change of at least -0.001?
(A) Met

(Q) Textbook exercise: given the entry `RRIRERPPRLPRPRPRPSHAPRP` , state whether its shrunken log2 fold change is greater than or equal to -0.001.
(A) Not met

(Q) API: above_or_equal(metric=shrunken log2 fold change, cutoff=-0.001) for item `RRIRWRPPRLPRPRPRPWCFPRP`
(A) Not met

(Q) Determine whether this sequence has shrunken log2 fold change no lower than -0.001: `RRIRPRPPRLPRPRPRPNTDPRP`
(A) Not met

----------
tested on: Escherichia coli TOP10; experiment: shrunken log2 fold change of peptide-encoding DNA abundance (4.5 h post-induction vs induction); higher = less antimicrobial activity (less host growth inhibition); conditions: time post-induction: 4.5 h; library: site-saturation at positions 5, 18, 19, 20
Could you please report measured shrunken log2 fold change for the items listed next?

INSERT INTO assay_data (biosequence, reported) VALUES
  ('RRIRLRPPRLPRPRPRPQGKPRP', 0.0467),
  ('RRIRERPPRLPRPRPRPMQHPRP', -0.04);

(Q) Give the value of shrunken log2 fold change reported for the following: `RRIRVRPPRLPRPRPRPFTQPRP`
(A) 0.0152

----------
test system: Escherichia coli TOP10; assay: shrunken log2 fold change of peptide-encoding DNA abundance (4.5 h post-induction vs induction); higher = less antimicrobial activity (less host growth inhibition); settings: time post-induction: 4.5 h; library: site-saturation at positions 5, 18, 19, 20
parameter_measured: shrunken log2 fold change
Answers are plain numbers.

Please review the entries below; each comes with its answer.
INSERT INTO measurements (biosequence, parameter_measured, reported) VALUES
  ('RRIRLRPPRLPRPRPRPDYEPRP', 'shrunken log2 fold change', -0.645),
  ('RRIRRRPPRLPRPRPRPICIPRP', 'shrunken log2 fold change', 0.232);

Batch lookup, shrunken log2 fold change per entry.
1. RRIRCRPPRLPRPRPRPNARPRP
2. RRIRTRPPRLPRPRPRPIVFPRP
3. RRIRPRPPRLPRPRPRPCLMPRP
4. RRIRARPPRLPRPRPRPQGHPRP

(A)
1: 0.00577; 2: -0.218; 3: -0.393; 4: 0.273

Quick batch: shrunken log2 fold change for everything below.
1. RRIRDRPPRLPRPRPRPIVIPRP
2. RRIRLRPPRLPRPRPRPQMRPRP

(A)
[-0.259, 0.64]

Provide the reported shrunken log2 fold change of each entry below, same order.
1. RRIRERPPRLPRPRPRPRYPPRP
2. RRIRCRPPRLPRPRPRPEREPRP
3. RRIRARPPRLPRPRPRPLAWPRP
4. RRIRWRPPRLPRPRPRPRNMPRP

(A)
1. 0.00273
2. 0.108
3. 0.721
4. -0.0758

(Q) Item `RRIRDRPPRLPRPRPRPCIMPRP` : provide shrunken log2 fold change
(A) 0.0282

----------
Consider the following sequences; for each one, report its shrunken log2 fold change.
test system: Escherichia coli TOP10; test: shrunken log2 fold change of peptide-encoding DNA abundance (4.5 h post-induction vs induction); higher = less antimicrobial activity (less host growth inhibition); conditions: time post-induction: 4.5 h; library: site-saturation at positions 5, 18, 19, 20;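 further: peptides expressed intracellularly from a pBAD plasmid library in pooled LB shake-flask culture, induced with 0.3% L-arabinose, DNA abundance read by NGS, three biological replicates, DESeq2 with apeglm shrinkage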
One number for each entry.

Here is how some sequences turned out for shrunken log2 fold change.
INSERT INTO measurements (biosequence, reported) VALUES
  ('RRIRRRPPRLPRPRPRPFDRPRP', 0.542),
  ('RRIRHRPPRLPRPRPRPQGPPRP', -0.235),
  ('RRIRIRPPRLPRPRPRPGLSPRP', -0.0218),
  ('RRIRKRPPRLPRPRPRPCICPRP', -0.14),
  ('RRIRMRPPRLPRPRPRPFNVPRP', -0.0076);

# batch size: 4; output shrunken log2 fold change per entry
1. RRIRRRPPRLPRPRPRPIAGPRP
2. RRIRKRPPRLPRPRPRPPYGPRP
3. RRIRHRPPRLPRPRPRPYERPRP
4. RRIRMRPPRLPRPRPRPRGRPRP

(A)
[-0.12, 0.156, -0.00674, 1.2]
